biological target: FGF14:Nav1.6 C-tail complex (Homo sapiens, UniProt Q92915+Q9UQD0); construct: polymerase chain reaction (PCR) amplification of the FGF14 open reading frame (nt 1–855); C-terminal fragment of Nav1.6 (amino acids 1763–1976) fused with CD4ΔC-tail (amino acids 1–395); expressed in transfected cells; assay: Split-luciferase complementation assay (LCA) in Clone V double stable HEK293 cells; format: cell-based; settings: CC_NCI screening; LCA luminescence, biological replicate Set 1; normalized to on-plate 0.3% DMSO controls (n=16 per plate)
Sequence (Q92915 1-252 isoform Q92915-2): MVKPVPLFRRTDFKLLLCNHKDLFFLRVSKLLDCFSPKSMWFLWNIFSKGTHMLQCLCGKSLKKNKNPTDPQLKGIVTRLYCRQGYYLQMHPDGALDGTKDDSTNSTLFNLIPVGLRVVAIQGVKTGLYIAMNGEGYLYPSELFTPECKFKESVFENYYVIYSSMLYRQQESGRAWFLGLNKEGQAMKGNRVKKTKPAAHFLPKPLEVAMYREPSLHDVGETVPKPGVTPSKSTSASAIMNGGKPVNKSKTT
Sequence (Q9UQD0 1763-1976 limits assumed): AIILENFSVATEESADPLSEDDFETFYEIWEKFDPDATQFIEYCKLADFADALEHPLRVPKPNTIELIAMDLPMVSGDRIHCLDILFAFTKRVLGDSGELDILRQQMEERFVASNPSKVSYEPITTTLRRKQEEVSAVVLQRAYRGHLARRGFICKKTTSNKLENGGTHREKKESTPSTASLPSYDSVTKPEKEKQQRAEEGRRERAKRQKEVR
readoutType: Split Luciferase Assay % Lum Set 1 (%)
State just the number; it will be interpreted in %.

Recorded Split Luciferase Assay % Lum Set 1, per entry:
{"compound": "COC(=O)c1ccc2c(c1)NC(=O)/C2=C(\\Nc1ccc(N(C)C(=O)CN2CCN(C)CC2)cc1)c1ccccc1", "outputUnit": "%", "Split Luciferase Assay % Lum Set 1": 119.91}
{"compound": "Clc1ccc(Nc2nnc(Cc3ccncc3)c3ccccc23)cc1", "outputUnit": "%", "Split Luciferase Assay % Lum Set 1": 64.47}
{"compound": "CO[C@H]1/C=C\\C=C(/C)C(=O)NC2=CC(=O)C(NCCN(C)C)=C(C[C@@H](C)C[C@H](OC)[C@H](O)[C@@H](C)/C=C(\\C)[C@@H]1OC(N)=O)C2=O", "outputUnit": "%", "Split Luciferase Assay % Lum Set 1": 40.55}
{"compound": "CC(=O)Nc1cccc(-n2c(=O)n(C3CC3)c(=O)c3c(Nc4ccc(I)cc4F)n(C)c(=O)c(C)c32)c1", "outputUnit": "%", "Split Luciferase Assay % Lum Set 1": 101.43}

(Q) Request the reported Split Luciferase Assay % Lum Set 1 associated with Cc1nc(Nc2ncc(C(=O)Nc3c(C)cccc3Cl)s2)cc(N2CCN(CCO)CC2)n1 [DASATINIB]
(A) 38.37

(Q) Request the reported Split Luciferase Assay % Lum Set 1 associated with CN1CCN(CCOc2cc(OC3CCOCC3)c3c(Nc4c(Cl)ccc5c4OCO5)ncnc3c2)CC1 [SARACATINIB]
(A) 85.12

(Q) Request the reported Split Luciferase Assay % Lum Set 1 associated with "COc1cccc(-c2cc(=O)c3ccccc3o2)c1N"
(A) 103.60

(Q) Request the reported Split Luciferase Assay % Lum Set 1 associated with "C=C(c1ccc(C(=O)O)cc1)c1cc2c(cc1C)C(C)(C)CCC2(C)C"
(A) 129.69

----------
Dear all, this message contains Toxicity Assay Z-score (CTB cell viability) results, target or system Clone V cells.
Write the number on its own, no unit after it.

Recorded Toxicity Assay Z-score (CTB cell viability), per entry:
{"compound": "O=C(CCCCCCC(=O)Nc1ccccc1)NO", "number": 1.24}
{"compound": "O=C1NC(=O)c2c1c1c3ccccc3n3c1c1c2c2ccccc2n1C1CCC3O1", "number": 1.27}
{"compound": "CC(C)[C@H](NS(=O)(=O)c1ccc(-c2ccc(Br)cc2)cc1)C(=O)O", "number": 0.77}
{"compound": "Cl.N[C@@H](Cc1ccc(N(CCCl)CCCl)cc1)C(=O)O [Melphalan hydrochloride]", "number": 1.01}
{"compound": "NC(=O)c1ccc2nc(-c3ccc(Oc4ccc(Cl)cc4)cc3)[nH]c2c1", "number": 1.80}

(Q) Request the reported Toxicity Assay Z-score (CTB cell viability) associated with "COc1cc2c(Nc3ccc(NC(=O)c4ccccc4)cc3)ncnc2cc1OCCCN1CCOCC1"
(A) 0.90

(Q) Request the reported Toxicity Assay Z-score (CTB cell viability) associated with "COc1ccc(OC)c2c(=S)c3ccccc3[nH]c12"
(A) 1.28

(Q) Request the reported Toxicity Assay Z-score (CTB cell viability) associated with "COc1ccc2c(c1OC)N=C(NC(=O)c1cccnc1)N1CCN=C21"
(A) 0.21

----------
tested on: Clone V cells; conditions: human
*1 amine or outer side, *2 acyl side, *3 side chain or, on linkers, in order; H or OH if unused. Where a SMILES comes first, the peptide text is derived from it. Bridges are numbered along the chain shown (N, C = ends). Roman numbers before positions name the chains, in order. [ ]: non-standard residue; d: D form. Actinocin(9to1) = Cc1c2oc3c(C)ccc(C(=O)[*:1])c3nc-2c(C(=O)[*:2])c(N)c1=O; NMeV = CN[C@H](C(=O)O)C(C)C; Sar = CNCC(=O)O
Measured Toxicity Assay % Fluor of individual entries
State just the number; it will be interpreted in %.

Recorded Toxicity Assay % Fluor, per entry:
{"compound": "CC[C@H](CO)Nc1nc(NCc2ccccc2)c2ncn(C(C)C)c2n1 [Roscovitine]", "number": 99.28}
{"compound": "O=P1(N(CCCl)CCCl)NCCCO1 (stereo not shown) [Cyclophosphamide]", "number": 98.87}
{"compound": "C[C@]12CC[C@@H]3c4ccc(OC(=O)N(CCCl)CCCl)cc4CC[C@H]3[C@@H]1CC[C@@H]2OP(=O)(O)O [Estramustine phosphate sodium]", "number": 92.97}
{"compound": "Cc1c2oc3c(C)ccc(C(=O)N[C@@H]4C(=O)N[C@H](C(C)C)C(=O)N5CCC[C@H]5C(=O)N(C)CC(=O)N(C)[C@@H](C(C)C)C(=O)O[C@@H]4C)c3nc-2c(C(=O)N[C@@H]2C(=O)N[C@H](C(C)C)C(=O)N3CCC[C@H]3C(=O)N(C)CC(=O)N(C)[C@@H](C(C)C)C(=O)O[C@@H]2C)c(N)c1=O [Dactinomycin] (I: T[dV]P[Sar][NMeV] / II: T[dV]P[Sar][NMeV]; ester I:1-I:C, II:1-II:C; linker I:N-II:N via Actinocin(9to1))", "number": 93.25}
{"compound": "CN[C@@H]1C[C@H]2O[C@@](C)([C@@H]1OC)n1c3ccccc3c3c4c(c5c6ccccc6n2c5c31)C(=O)NC4 [Staurosporine, reference compound]", "number": 82.83}

(Q) Could you share what Toxicity Assay % Fluor was measured for CC1=C2C[C@H]3[C@@H](CC=C4C[C@@H](O)CC[C@@]43C)[C@@H]2CC[C@]12O[C@@H]1C[C@H](C)CN[C@H]1[C@H]2C [CYCLOPAMINE] , tested on Clone V cells?
(A) 85.59

(Q) Could you share what Toxicity Assay % Fluor was measured for COc1cc2c(cc1OC)[C@@H]1C(=O)c3ccc4c(c3O[C@@H]1CO2)C=CC(C)(C)O4 [DEGUELIN] , tested on Clone V cells?
(A) 100.58

----------
target: FGF14:Nav1.6 C-tail complex (Homo sapiens, UniProt Q92915+Q9UQD0); construct: polymerase chain reaction (PCR) amplification of the FGF14 open reading frame (nt 1–855); C-terminal fragment of Nav1.6 (amino acids 1763–1976) fused with CD4ΔC-tail (amino acids 1–395); expressed in transfected cells; assay: Split-luciferase complementation assay (LCA) in Clone V double stable HEK293 cells; format: cell-based; conditions: CC_NCI screening, biological replicate Set 1; normalized to on-plate 0.3% DMSO controls
Counter-ions that a name gives are not always drawn.
Output 1 (yes) for Split Luciferase Assay Z-score Set 1 not less than -0.3; output 0 (no) otherwise.

Examples from the recorded data:
{"molecule": "Cc1cc(Nc2cc(N3CCN(C)CC3)nc(Sc3ccc(NC(=O)C4CC4)cc3)n2)[nH]n1", "classification": "0 (no)"}
{"molecule": "Nc1ncn([C@@H]2O[C@H](CO)[C@@H](O)[C@H]2O)c(=O)n1", "classification": "0 (no)"}
{"molecule": "Cn1cc(/C=C2\\C(=O)Nc3cccnc32)c2ccccc21", "classification": "0 (no)"}

(Q) Split Luciferase Assay Z-score Set 1 >= -0.3 for "O=NN(CCCl)C(=O)NCCCl" ?
(A) 1 (yes)

(Q) Split Luciferase Assay Z-score Set 1 >= -0.3 for "O=c1cc(N2CCOCC2)nc2c3ccccc3ccn12" ?
(A) 1 (yes)

(Q) Split Luciferase Assay Z-score Set 1 >= -0.3 for CNNCc1ccc(C(=O)NC(C)C)cc1 [Procarbazine hydrochloride] ?
(A) 1 (yes)

(Q) Split Luciferase Assay Z-score Set 1 >= -0.3 for "CCCCCOC(=O)Nc1nc(=O)n([C@@H]2O[C@H](C)[C@@H](O)[C@H]2O)cc1F" ?
(A) 1 (yes)

(Q) Split Luciferase Assay Z-score Set 1 >= -0.3 for Cc1ccc([N+](=O)[O-])cc1S(=O)(=O)N(C)/N=C/c1cnc2ccc(Br)cn12 [PIK 75, reference compound] ?
(A) 0 (no)

(Q) Split Luciferase Assay Z-score Set 1 >= -0.3 for "NC(=O)c1ccc2[nH]ccc2c1" ?
(A) 1 (yes)

----------
Dear all, this message contains Toxicity Assay Z-score results, target or system Clone V cells.

Recorded Toxicity Assay Z-score, per entry:
{"smilesCode": "Cn1cc(CNCC2CCN(c3ncc(C(=O)NO)cn3)CC2)c2ccccc21", "Toxicity Assay Z-score": -0.43}
{"smilesCode": "Cc1nc(Nc2ncc(C(=O)Nc3c(C)cccc3Cl)s2)cc(N2CCN(CCO)CC2)n1", "Toxicity Assay Z-score": -0.77}
{"smilesCode": "COC1=C2C[C@@H](C)C[C@H](OC)[C@H](O)[C@@H](C)/C=C(\\C)[C@H](OC(N)=O)[C@@H](OC)/C=C\\C=C(/C)C(=O)NC(=CC1=O)C2=O", "Toxicity Assay Z-score": -0.74}
{"smilesCode": "COc1cc2/c(=N/c3ccc(Br)cc3F)nc[nH]c2cc1OCC1CCN(C)CC1", "Toxicity Assay Z-score": -2.01}
{"smilesCode": "CO[C@H]1C[C@@H]2CC[C@@H](C)[C@@](O)(O2)C(=O)C(=O)N2CCCC[C@H]2C(=O)O[C@H]([C@H](C)C[C@@H]2CC[C@@H](OC(=O)C(C)(CO)CO)[C@H](OC)C2)CC(=O)[C@H](C)/C=C(\\C)[C@@H](O)[C@@H](OC)C(=O)[C@H](C)C[C@H](C)/C=C/C=C/C=C/1C", "Toxicity Assay Z-score": -0.96}
{"smilesCode": "Cc1cn(-c2cc(NC(=O)c3ccc(C)c(Nc4nccc(-c5cccnc5)n4)c3)cc(C(F)(F)F)c2)cn1", "Toxicity Assay Z-score": -1.58}

# next compound below
(Q) Could you share what Toxicity Assay Z-score was measured for "Cc1cccc(Nc2nc(-c3ccncc3)cs2)c1" , tested on Clone V cells?
(A) -0.22
